# inhibition annotations
- Measurement Target: recombinant wild-type (wt) human kallikrein 2 (human, UniProt P20151 25-261)
- Experiment Summary: cell-based or functional assay
Non-standard residues stand in square brackets, D forms with d. No end group written: not given here. Sar = CNCC(=O)O
Endpoint: inhibition (%)

[[record]]
binder = "GPARRPFPATAG-OH [GPARRPFPATAG (SEQ ID NO:22)]"
value_unit = "%"
measurement = 58

[[record]]
binder = "GAARR[Sar]F[Sar]APG [GAARR-Sar-F-Sar-APG (SEQ ID NO:54)]"
value_unit = "%"
measurement = 0

[[record]]
binder = "SRFKVAWAAG-OH [SRFKVAWAAG (SEQ ID NO:61)]"
value_unit = "%"
measurement = 10

[[record]]
binder = "ARFKVWWG [ARFKVWWG (SEQ ID NO:75)]"
value_unit = "%"
measurement = 94

[[record]]
binder = "GPARRPFPVAAG-OH [GPARRPFPVAAG (SEQ ID NO:23)]"
value_unit = "%"
measurement = 45

[[record]]
binder = "GPVTAG-OH [GFVTAG as printed in Table 6 (SEQ ID NO:37)]"
value_unit = "%"
measurement = 0

[[record]]
binder = "GAARR[Sar]FPAPG [GAARR-Sar-FPAPG (SEQ ID NO:52)]"
value_unit = "%"
measurement = 0

[[record]]
binder = "SRFKVG-OH [SRFKVG (SEQ ID NO:71)]"
value_unit = "%"
measurement = 7

[[record]]
binder = "GAARRPFPAPG [GAARRPFPAPG (SEQ ID NO:51)]"
value_unit = "%"
measurement = 69

[[record]]
binder = "GARRPFPVTAG [GARRPFPVTAG (SEQ ID NO:32)]"
value_unit = "%"
measurement = 27

[[record]]
binder = "RRPAG-OH [RRPAG (SEQ ID NO:41)]"
value_unit = "%"
measurement = 0

[[record]]
binder = "GPARRPG-OH [GFARRFG as printed in Table 6 (SEQ ID NO:28)]"
value_unit = "%"
measurement = 4

[[record]]
binder = "GRRPFPVTAG-OH [… as printed in Table 6 (SEQ ID NO:33)]"
value_unit = "%"
measurement = 2

[[record]]
binder = "RRPAP [RRPAP (SEQ ID NO:39)]"
value_unit = "%"
measurement = 0

[[record]]
binder = "GAAARPFPAPSG [GAAARPFPAPSG (SEQ ID NO:8)]"
value_unit = "%"
measurement = 0

[[record]]
binder = "RRPFG-OH [RRPFG (SEQ ID NO:42)]"
value_unit = "%"
measurement = 0

[[record]]
binder = "GPARRPFAVTAG-OH [GPARRPFAVTAG (SEQ ID NO:21)]"
value_unit = "%"
measurement = 17

[[record]]
binder = "GAARRPFPAPSG [GAARRPFPAPSG (SEQ ID NO:7)]"
value_unit = "%"
measurement = 77

[[record]]
binder = "AARRPAPG-OH [AARRPAPG (SEQ ID NO:45)]"
value_unit = "%"
measurement = 36

[[record]]
binder = "GPARAPFPVTAG-OH [GPARAPFPVTAG (SEQ ID NO:18)]"
value_unit = "%"
measurement = 0

[[record]]
binder = "GAARRPF[Sar]APG [GAARRPF-Sar-APG (SEQ ID NO:53)]"
value_unit = "%"
measurement = 24

[[record]]
binder = "RFKVWWAAG-OH [RFKVWWAAG (SEQ ID NO:65)]"
value_unit = "%"
measurement = 22

[[record]]
binder = "Ac-ARFKVWWA [Ac-ARFKVWWA (SEQ ID NO:80)]"
value_unit = "%"
measurement = 94

[[record]]
binder = "AARRPFPG [AARRPFPG (SEQ ID NO:47)]"
value_unit = "%"
measurement = 28

[[record]]
binder = "GRPFPVTAG-OH [… as printed in Table 6 (SEQ ID NO:34)]"
value_unit = "%"
measurement = 0

[[record]]
binder = "ARFKVWWA [ARFKVWWA (SEQ ID NO:79)]"
value_unit = "%"
measurement = 95

[[record]]
binder = "ARFKVWWAAG (S1A variant of HK2p01) [ARFKVWWAAG (SEQ ID NO:56)]"
value_unit = "%"
measurement = 94

[[record]]
binder = "GAARRPFPAPAG [GAARRPFPAPAG (SEQ ID NO:14)]"
value_unit = "%"
measurement = 78

[[record]]
binder = "Ac-ARFKVWWG [Ac-ARFKVWWG (SEQ ID NO:76)]"
value_unit = "%"
measurement = 93

[[record]]
binder = "GPARG-OH [GPARG (SEQ ID NO:30)]"
value_unit = "%"
measurement = 0

[[record]]
binder = "AAARRPFPG [AAARRPFPG (SEQ ID NO:48)]"
value_unit = "%"
measurement = 37

[[record]]
binder = "GPARRPFPVTG-OH [GPARRPFPVTG (SEQ ID NO:24)]"
value_unit = "%"
measurement = 48

